- experimental-target: Solute carrier family 2, facilitated glucose transporter member 1 (Homo sapiens) (UniProt P11166)
- Sequence (P11166 whole entry): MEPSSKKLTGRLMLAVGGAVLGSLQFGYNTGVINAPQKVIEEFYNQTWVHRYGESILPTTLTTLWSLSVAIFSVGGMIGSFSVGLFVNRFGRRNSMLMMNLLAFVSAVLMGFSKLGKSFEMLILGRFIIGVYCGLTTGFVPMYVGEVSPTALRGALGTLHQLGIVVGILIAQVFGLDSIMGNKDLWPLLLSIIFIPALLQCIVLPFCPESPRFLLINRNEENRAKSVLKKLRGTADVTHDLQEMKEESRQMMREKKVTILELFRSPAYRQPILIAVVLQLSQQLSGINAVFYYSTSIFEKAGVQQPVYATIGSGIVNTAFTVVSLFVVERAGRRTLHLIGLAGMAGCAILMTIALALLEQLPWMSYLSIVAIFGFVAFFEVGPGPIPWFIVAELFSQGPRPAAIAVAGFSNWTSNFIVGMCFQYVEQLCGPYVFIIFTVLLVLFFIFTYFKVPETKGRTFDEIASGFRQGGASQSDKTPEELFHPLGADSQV
- measurement-protocol: ST_JUDE_LEISH: Cytotoxicity at 2uM final concentration against transgenic Leishmania Mexicana promastigotes LmGLUT1 that are glucose transport deficient and complemented with the human glucose transporter GLUT1. Activity is measured by DNA content using SYBR green in vitro
- Assay type: functional
# inhibition annotations
The reply should contain only the number, in %.

# example entries with known answers
{"columns": ["compound", "inhibition (%)"],
 "data": [
  ["Cc1ccccc1N1CCN(c2ccc(C(=O)NC(C)C)cn2)CC1", 0.52],
  ["Cc1ccc(CNC(=O)c2cc3c(=O)n4cccc(C)c4nc3n(CCN3CCOCC3)c2=N)cc1", -0.35],
  ["COc1ccc(-c2cccc(CNC3CCN(C)CC3)c2)cc1S(=O)(=O)NCc1ccccc1", 4.97]
]}

Return reported inhibition; argument: O=C(C=Cc1ccc(Cl)c(Cl)c1)NCCCCCN1CCC(CCCNS(=O)(=O)c2ccc(F)cc2)CC1
1.12

###

- experimental-target: Solute carrier family 2, facilitated glucose transporter member 1 (Homo sapiens) (UniProt P11166)
- measurement-protocol: ST_JUDE_LEISH: Cytotoxicity at 2uM final concentration against transgenic Leishmania Mexicana promastigotes LmGLUT1 that are glucose transport deficient and complemented with the human glucose transporter GLUT1. Activity is measured by DNA content using SYBR green in vitro
- Assay type: functional
Consider the following molecules and their measured inhibition readings.
Value expressed in %; do not type the unit.

Here's what some known entries look like.
{"columns": ["molecule", "inhibition [%]"],
 "data": [
  ["CCCNCc1ccc(-c2ccc(CN(C(=O)c3nn(-c4ccccc4)nc3C)C(C)CN(C)C)cc2)nc1 (stereo not drawn)", 1.37],
  ["NS(=O)(=O)c1cccc(Nc2nccc(-c3cnn4ncccc34)n2)c1", 50.6],
  ["N=C(N)c1cccc(OCCCOc2cccc(NC(=O)Nc3ccc([N+](=O)[O-])cc3)c2)c1", 4.46],
  ["Cc1cc(F)ccc1[C@H]1C[C@H](N2CCOCC2)CCN1C(=O)N(C)[C@@H](C)c1cc(C(F)(F)F)cc(C(F)(F)F)c1", 0.71],
  ["CC(C)Nc1cc(C(=O)N[C@@H](Cc2ccccc2)[C@H](O)CNC2CCOCC2)c(F)c(N2CCCCS2(=O)=O)c1", 6.75],
  ["O=S(=O)(Nc1cccc(CCN2CCC(N3CCCCC3)CC2)c1)c1cccc2cccnc12", 0.25]
]}

Could you now look at the following molecule, please?
Endpoint output: inhibition of CC1(C)NC(N)=NC(=N)N1OCCCCCOc1ccccc1 . Value?
0.42

###

- experimental-target: Solute carrier family 2, facilitated glucose transporter member 1 (Homo sapiens) (UniProt P11166)
- measurement-protocol: ST_JUDE_LEISH: Cytotoxicity at 2uM final concentration against transgenic Leishmania Mexicana promastigotes LmGLUT1 that are glucose transport deficient and complemented with the human glucose transporter GLUT1. Activity is measured by DNA content using SYBR green in vitro
- Assay type: functional
readout-label: inhibition (%)
Reply numerically in %, unit not repeated.

Sample records with inhibition:
{"columns": ["compound-structure", "readout-label", "readout-units", "observed-measurement"],
 "data": [
  ["O=C(/C=C/c1ccccc1O)N1CCC(CCN2CCC(c3c[nH]c4ccccc34)CC2)CC1", "inhibition", "%", -5.26],
  ["COc1ccc(NC(=O)Nc2ccc(-c3cccc(-c4nc5cccc(C)c5[nH]4)c3)cc2)cc1", "inhibition", "%", -1.37],
  ["COc1ccc(C(=O)Nc2ccc(-c3ccc([N+](=O)[O-])cc3)cc2)cc1CCCN(C)C", "inhibition", "%", 2.83],
  ["CN1CCOc2ccc(Nc3nnc(-c4cccc(-c5cccnc5)c4)o3)cc2C1", "inhibition", "%", 3.12]
]}

Next, consider the following molecule.
# inhibition lookup, item O=C(Nc1nc(-c2ccccn2)cs1)c1ccccc1COc1ccccc1
-2.49
